Tested on: SNB-75 CNS
Assay: NCI-60 one-dose screen, 48 h (100 = growth as untreated, 0 = no growth, -100 = all killed)
Settings: 10 µM unless noted
About 83,000 compounds went through this panel and 20% of them were active in at least one assay; those are over-represented in the sample as a whole.
// growth lookup, one value per entry
Value expressed in %; do not type the unit.

COC1=C(Br)C(=O)C(OC)=C(Br)C1=O :: 103
C/C(=N\NC(=O)C(C)SC(C)C(=O)N/N=C(\C)c1cccnc1)c1cccnc1 (centres undefined) :: 89.7

Given the entry `CC(C)(C)CC(C)(C)c1ccc(OCCOCC[N+](C)(C)CC(=O)[O-])cc1` , report its measured growth. 99.2

Given the entry COc1ccc(C2CC(=O)c3c(nc4ccc(Cl)cc4c3N)C2)cc1 (centres undefined) , report its measured growth. 95.7
